test: Toxicity liver stage against HepG2, at 10uM; type: cell-based; parameters: test concentration 10 uM, cell line HepG2-A16-CD81EGFP; conditions: human, HepG2-A16-CD81EGFP cells; read-out: INHIBITION
// cytotoxicity at 10 µM lookup, one value per entry
measured_property: cytotoxicity at 10 µM

compound: CN(Cc1ccsc1)C(=O)c1cccc(S(=O)(=O)NC(C)(C)C)c1
experimental_result: -8.03%
//
compound: COC[C@@]12CCO[C@@H]1CCN(C(=O)C1CCSCC1)C2
experimental_result: -104%
//
compound: Cn1nnc2c1C(COCC1CC1)CN(C(=O)CC1=CCCCC1)C2 (stereo unspecified)
experimental_result: -99.3%
//
compound: N#Cc1ccccc1N1CC2(CCCCN2CC2CC2)CC1=O (stereo unspecified)
experimental_result: 10.7%
//
compound: CC(NC(=O)NCC1(c2ccccc2)CCC1)c1nncn1C (stereo unspecified)
experimental_result: -10.4%
//
compound: COCCC1(CO)CCCN(Cc2ccc(F)c(C)c2)C1 (stereo unspecified)
experimental_result: -1.31%
//
compound: O=C1CC(NS(=O)(=O)c2ccccc2)CN1Cc1ccccc1 (stereo unspecified)
experimental_result: 6.89%
//
compound: Cc1noc([C@H]2C[C@@H]3CCN(CC4CCOCC4)C[C@H]3O2)n1
experimental_result: -103%
//
compound: CC(=O)c1ccc(Cl)c(Cl)c1OCC(=O)NCC(F)(F)F
experimental_result: -1.2%
//
compound: CC(CO)NC(=O)Nc1ccc(Cl)cc1OCC(F)(F)F (stereo unspecified)
experimental_result: 5.32%
//
compound: CCS(=O)(=O)N1CCc2nc(N3CCCC3)nc(N(C)C)c2CC1
experimental_result: 14.3%
//
compound: CCOC(=O)N1CC(C)=C(C)CN1C(=O)Nc1ccc(Cl)c(Cl)c1
experimental_result: -0.113%
//
compound: Cc1cc(C(=O)N2CCC(c3nccn3Cc3ccncc3)CC2)no1
experimental_result: -15.7%
//
compound: CN(C)C(=O)CN1C(=O)CCC12CCN(Cc1cccs1)CC2
experimental_result: -2.6%
//
compound: CCc1ccc(-c2c(C)c(-c3cnn(C)c3)nc(N)c2C#N)o1
experimental_result: -133%
//
compound: CCc1nc(C)sc1CNC1CCN(Cc2ccccc2)C1 (stereo unspecified)
experimental_result: -31.7%
//
compound: COc1cccc(CN2CCC3(CC2)CCN(C(=O)[C@@H]2CCCO2)C3)c1
experimental_result: 0.523%
//
compound: COCCN1C[C@@H](c2ccccc2)[C@@]2(CCN(CC(=O)N(C)C)C2=O)C1
experimental_result: 3.11%
//
compound: Cc1cnn(CC2CCCCN2Cc2nc(N)c3ccccc3n2)c1 (stereo unspecified)
experimental_result: -7.21%
//
compound: COC(=O)c1cc(C(=O)N2CCOCC2(C)C)n(-c2ccccc2)n1
experimental_result: -10.2%
//
compound: OC1(CNCCc2csc(-c3ccncc3)n2)CCCNC1 (stereo unspecified)
experimental_result: -13.2%
//
compound: O=C(Cc1cccnc1)N1C[C@@H]2CC[C@H]1CN(Cc1ccc(F)cc1)C2
experimental_result: 4.54%
//
compound: Cc1noc(CN(C)c2nc(-c3ccco3)nc3c2CCN(C)CC3)n1
experimental_result: -0.0198%
//
compound: CCCn1ccc2cc(NC(=O)NCCn3cnnc3CC)ccc21
experimental_result: 2.47%
//
compound: CC(C)NC1CC2(CCNCC2)c2cc(F)ccc21 (stereo unspecified)
experimental_result: -9.05%
//
compound: COCCn1c2c(ccc1=O)CCN(C(=O)NC1CC1)CC2
experimental_result: 1.77%
//
compound: Cc1ccc(CC(=O)N2CCN(c3nccs3)CC2)s1
experimental_result: -13%
//
compound: Cc1noc(C)c1-c1nc(C2CCCN(CCC(N)=O)C2)ccc1CO (stereo unspecified)
experimental_result: -2.66%
//
compound: C=C(C)CN1CCC(NC(=O)NCCc2cccc(C(N)=O)c2)CC1
experimental_result: 11.4%
//
compound: NC(=O)CN1CC(O)c2ccccc2S1(=O)=O (stereo unspecified)
experimental_result: 4.37%
//
compound: COc1ncccc1NC(=O)N1CCCC1c1cc(C)no1 (stereo unspecified)
experimental_result: -9.66%
//
compound: O=C(c1cccc2ccnn12)N1CCC[C@H]1CN1CCCC1
experimental_result: -144%
//
compound: O=C1CSC(c2ccncc2)c2c[nH]nc2N1 (stereo unspecified)
experimental_result: 13%
//
compound: COCC(=O)N1C[C@@H]2OCCN(Cc3c(C)noc3C)[C@@H]2C1
experimental_result: -0.722%
//
compound: Cc1noc([C@@]23CCO[C@@H]2CCN(C(=O)c2ccsc2)C3)n1
experimental_result: 9.1%
//
compound: CN(CC(=O)NC1(C)CCS(=O)(=O)C1)Cc1ccc(F)c(F)c1 (stereo unspecified)
experimental_result: -1.55%
